metric.name: melting point

Item under review: COc1ccc(S(=O)(=O)c2ccc(OC)c3ccccc23)cc1 . Reported melting point?
160 to 162 °C

Another compound to check: CNC(=O)[C@H](CO[Si](C)(C)C(C)(C)C)NC(=O)Nc1n[nH]c(=S)s1
213 to 214 °C

Another: CC(C)(C)OC(=O)NC1CCc2cccc(-c3ccccc3)c2CC1=O (stereo unspecified)
173 to 174 °C

Please do the same for O=C(Nc1ccc(-n2nc(C(F)(F)F)cc2OC(F)F)cc1)c1cccc(F)c1F as well.
154 to 155 °C

Would you kindly repeat that for CCOC(=O)C1(S(=O)(=O)c2ccc(OC)cc2)CCN(Cc2ccc(-c3cccs3)cc2)CC1 ?
130 °C

Okay, and O=C(O)c1ccc(N2CCOCC2)c(NC(=O)C(CS)Cc2ccccc2)c1 (stereo unspecified) ?
218 to 222 °C

Would you kindly repeat that for COc1ccccc1CCN(CCCCC(=O)c1ccc2c(c1)CCN2C(=O)Nc1ccccc1)C(=O)OC(C)(C)C ?
136 to 137 °C

Now consider CCOC(=O)C1(C(=O)OCC)CCc2cc(Br)ccc2N1Cc1ccccc1 .
116 to 117 °C

Moving on to the next compound: O=C1c2ccc([N+](=O)[O-])cc2C(=O)N1C1CCN(Cc2cccnc2)CC1
143 to 144 °C

Now the compound Fc1ccc(F)c(C(Sc2ccc(Cl)cc2)c2cc(Cl)ncc2Cl)c1 (stereo unspecified)
128 to 129 °C

Also check O=C(O)CCC(=O)c1ccc2c(c1)oc1ccccc12
208 to 210 °C

Please do the same for O=C1N(Cc2ccc(-c3ccccc3Cl)o2)c2ccccc2C12COc1cc3c(cc12)OCO3 (stereo unspecified) as well.
148 to 150 °C

Proceed to CCOC(=O)c1c(C(F)(F)F)nc(C(F)F)c(C(=O)OC)c1CS(C)(=O)=O
110 to 112 °C

Proceed to NC(=O)CCCCCNC(N)=O
208 °C

Next compound up: CCOC(=O)C(C)c1ccc(NC2OC(=O)c3ccccc32)cc1 (stereo unspecified)
136 to 139 °C

Try this compound next: CC(C)NC1C(n2cccn2)=NNN1S (stereo unspecified)
80 to 85 °C

Lookup Cc1cc(CCCCNc2nc(CO)nn2C)sc1C=O
118 to 121 °C

Cool, now Clc1ccc(N2CCN(Cc3n[nH]c4ccccc34)CC2)nc1
203 to 204 °C

// next record Clc1ccc(Cn2ccc3cc(OCc4ccc5ccccc5n4)ccc32)cc1
102 to 104 °C

Another compound to look at: [N-]=[N+]=NCc1ccc2c(NC(=O)c3ccccc3)nccc2c1
125 to 129 °C

Quick one: O=C1NCCCN1C1CCN(CC[C@H](c2ccc(Cl)c(Cl)c2)[C@@H](O)c2ccnn2-c2ccccc2)CC1 (racemic)
174 to 176 °C
